- Tested on: MRC5
- measurementProtocol: Antiproliferative activity against human MRC5 cells assessed inhibition of cell growth incubated for 48 hrs by MTT assay
- Type: functional, cell-based
- assayContext: MRC5, 48 h
valueKind: IC50 (µM)
Give the number; µM is assumed, so skip it.

Input line: Look up and report measured IC50 for this entry: CC(=O)O[C@@H](COc1ccc(N(CCCl)CCCl)cc1)C(=O)O[C@H]1CC[C@H]2[C@@H]3CCC4=CC(=O)NCC[C@]4(C)[C@H]3C(=O)C[C@]12C
Output line: 52

Input line: Quick one: give measured IC50 for C[C@]12CC(=O)[C@H]3[C@@H](CCC4=CC(=O)NCC[C@@]43C)[C@@H]1CC[C@@H]2OC(=O)[C@@H](O)COc1ccc(N(CCCl)CCCl)cc1
Output line: 68

Input line: Answer with the recorded IC50 for the compound listed here: C[C@]12CC[C@H]3[C@@H](CCC4=CC(=O)NCC[C@@]43C)[C@@H]1CC[C@@H]2OC(=O)[C@@H](O)COc1ccc(N(CCCl)CCCl)cc1
Output line: 22.5

Input line: Please report the measured IC50 for CC(=O)O[C@@H](COc1ccc(N(CCCl)CCCl)cc1)C(=O)O[C@H]1CC[C@H]2[C@@H]3CCC4=CC(=O)NCC[C@]4(C)[C@H]3CC[C@]12C
Output line: 21.5

Input line: Using the record for CC(=O)O[C@@H](COc1ccc(N(CCCl)CCCl)cc1)C(=O)Oc1ccc2c(c1)CC[C@@H]1[C@@H]2CC[C@]2(C)NC(=O)CC[C@@H]12 , state its measured IC50.
Output line: 19
